Item-by-item account of normalized growth
Test: chemical genetic growth profiling, strain panel (AID 1159580);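 note: tested at 20 µM; growth read once vehicle control cultures reached saturation at 30 °C; 1 = growth at the plate median or of vehicle wells; lower values mean less growth of the strain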
Conditions: S. cerevisiae deletion strains, growth OD, locus YAR019C, strain CDC15, stronger effect = lower value
About 2,000 (36%) of roughly 5,500 compounds were called active. Another 18% or so got no clear call; they are omitted. This is one part of the list.

compound=Cc1nn(Cc2cccc(C(=O)O/N=C(/N)c3ccc(Cl)cc3)c2)c(C)c1Br measurement="0.982 (inactive)"
compound=CC(=O)Oc1ccc2c(=O)c(Oc3ccc(Cl)cc3)c(C)oc2c1 measurement="0.969 (inactive)"

Input: For the compound shown here, COC(=O)c1ccc(Oc2c(C(F)(F)F)oc3cc(O)ccc3c2=O)cc1 , give the reported normalized growth.
Output: 0.976 (inactive)

Input: For the compound shown here, FC(F)(F)c1ccc(NC(=S)Nc2ccc(C(F)(F)F)cc2Cl)c(Cl)c1 , give the reported normalized growth.
Output: 0.964 (inactive)

Input: For the compound shown here, N/C(=N/OC(=O)c1ccccc1Cl)c1cccc(CS(=O)(=O)c2ccc(Cl)cc2)c1 , give the reported normalized growth.
Output: 0.993 (inactive)

All values here come from PubChem BioAssay AID1159580.
